Please provide measured IC50 for the entries that follow.
System: RS4;11 (BCL-2 dependent acute lymphoblastic leukemia cell line)
protocol notes: RS4;11 Cell Proliferation Assay
Format: cell-based
recorded conditions: Homo sapiens, RS4-11, RS4;11 cells, read-out: Cellular proliferation assay (IC50, nM) RS4
State the answer as a number, implicitly in nM.

Which value of IC50 has been reported for COc1cc(CN2CCN(C3CC4(C3)CN(c3ccc(C(=O)NS(=O)(=O)c5ccc(NC[C@H]6CC[C@](C)(O)CC6)c([N+](=O)[O-])c5)c(Oc5cnc6[nH]cc(F)c6c5)c3)C4)[C@H](c3ccccc3C(C)C)C2)cc2c1OCCC2(F)F [Example 354] in the records?
0.14

Query CC(C)c1ccccc1C1CN(Cc2cnn(C)c2)CCN1C1CC2(CCN(c3ccc(C(=O)NS(=O)(=O)c4ccc(NC[C@H]5CC[C@](C)(O)CC5)c([N+](=O)[O-])c4)c(Oc4cnc5[nH]ccc5c4)c3)CC2)C1 (stereo partly shown) [Example 22] next
0.46

Also CC(C)c1ccccc1C1CN(CC(C)(C)C)CCN1C1CC2(CCN(c3ccc(C(=O)NS(=O)(=O)c4ccc(NC[C@H]5CC[C@](C)(O)CC5)c([N+](=O)[O-])c4)c(Oc4cnc5[nH]ccc5c4)c3)CC2)C1 (stereo partly shown) [Example 12] , if possible.
3

Also COc1ccc(CN2CCN(C3CC4(CCN(c5ccc(C(=O)NS(=O)(=O)c6ccc(NC[C@H]7CC[C@](C)(O)CC7)c([N+](=O)[O-])c6)c(Oc6cnc7[nH]ccc7c6)c5)CC4)C3)C(c3ccccc3C(C)C)C2)cc1C1CC1 (stereo partly shown) [Example 136] , if possible.
0.51

* * *

measured target: Recombinant human Bcl-2 protein (Homo sapiens (Human), UniProt P10415)
protocol notes: Bcl-2 TR-FRET Assay
Assay type: binding
recorded conditions: Bcl-2 wild type, TR-FRET; read-out: Biochemical assay (IC50, nM) Bcl-2 WT
Field: IC50. Provide a value for each of the compounds that follow.
Write the value in nM as a bare number.

Which IC50 reading was recorded for the compound COc1ccc(C(=O)N2CCN(C3CC4(C3)CN(c3ccc(C(=O)NS(=O)(=O)c5ccc(NC[C@H]6CC[C@](C)(O)CC6)c([N+](=O)[O-])c5)c(Oc5cnc6[nH]cc(F)c6c5)c3)C4)[C@H](c3ccccc3C(C)C)C2)cc1 ?
0.077

And then COc1cc(CN2CCN(C3CC4(C3)CN(c3ccc(C(=O)NS(=O)(=O)c5ccc(NC[C@H]6CC[C@](C)(O)CC6)c([N+](=O)[O-])c5)c(Oc5cnc6[nH]cc(F)c6c5)c3)C4)[C@H](c3ccccc3C(C)C)C2)ccc1OC1COC1 , what is it?
0.042

* * *

measured target: recombinant human Bcl-2-G101V protein (Homo sapiens (Human), UniProt P10415, G101V)
protocol notes: Bcl-2-G101V TR-FRET Assay
Type: binding
recorded conditions: Bcl-2 G101V mutant, TR-FRET; read-out: Biochemical assay (IC50, nM) Bcl-2 G101V
measured metric: log10(IC50) (log10 of the value in nM)
All values: base-10 log of IC50 in nM.

What does the data say about its log10(IC50)? Entry: COc1cc(CN2CCN(C3CC4(C3)CN(c3ccc(C(=O)NS(=O)(=O)c5ccc(NC[C@H]6CC[C@](C)(O)CC6)c([N+](=O)[O-])c5)c(Oc5cnc6[nH]cc(F)c6c5)c3)C4)[C@H](c3ccccc3C(C)C)C2)ccc1OC(C)C
-0.37

Moving on to CC(C)c1ccccc1[C@@H]1CN(Cc2ccc(C3CCOCC3)cc2)CCN1C1CC2(C1)CN(c1ccc(C(=O)NS(=O)(=O)c3ccc(NC[C@H]4CC[C@](C)(O)CC4)c([N+](=O)[O-])c3)c(Oc3cnc4[nH]cc(F)c4c3)c1)C2
-0.17

Try the compound COCCN1CCN(C2CC3(CCN(c4ccc(C(=O)NS(=O)(=O)c5cc6c(c([N+](=O)[O-])c5)N[C@H](C[C@H]5CC[C@H](O)CC5)CO6)c(Oc5cnc6[nH]ccc6c5)c4)CC3)C2)C(c2ccccc2C(C)C)C1 (stereo partly shown)
-1.03

Now consider COc1cc(CN2CCN(C3CC4(C3)CN(c3ccc(C(=O)NS(=O)(=O)c5ccc(NC[C@H]6CC[C@](C)(O)CC6)c([N+](=O)[O-])c5)c(Oc5cnc6[nH]ccc6c5)c3)C4)[C@H](c3ccccc3C(C)C)C2)cc2cc(C)oc12 .
-0.01

Subsequent entry: COc1cc(CN2CCN(C3CC4(CCN(c5ccc(C(=O)NS(=O)(=O)c6ccc(NC[C@H]7CC[C@](C)(O)CC7)c([N+](=O)[O-])c6)c(Oc6cnc7[nH]ccc7c6)c5)CC4)C3)C(c3ccccc3C(C)C)C2)cc(F)c1OC (stereo partly shown)
-0.05

Further, for COc1cc(CN2CCN(C3CC4(CCN(c5ccc(C(=O)NS(=O)(=O)c6ccc(NC[C@H]7CC[C@](C)(O)CC7)c([N+](=O)[O-])c6)c(Oc6cnc7[nH]ccc7c6)c5)CC4)C3)C(c3ccccc3C(C)C)C2)cc(C(F)(F)F)c1 (stereo partly shown) ?
0.81

Then CC(C)c1ccccc1C1CN(C2CCCCC2)CCN1C1CC2(CCN(c3ccc(C(=O)NS(=O)(=O)c4ccc(NC[C@H]5CC[C@](C)(O)CC5)c([N+](=O)[O-])c4)c(Oc4cnc5[nH]ccc5c4)c3)CC2)C1 (stereo partly shown) ?
-0.28

Thanks! And CC(C)c1ccccc1[C@@H]1CN(Cc2ccc(C3CCOC3)cc2)CCN1C1CC2(C1)CN(c1ccc(C(=O)NS(=O)(=O)c3ccc(NCC4CCC(C)(O)CC4)c([N+](=O)[O-])c3)c(Oc3cnc4[nH]cc(F)c4c3)c1)C2 (stereo partly shown) ?
-0.49

# repeat for COc1cc(CN2CCN(C3CC4(CCN(c5ccc(C(=O)NS(=O)(=O)c6ccc(NC[C@H]7CC[C@](C)(O)CC7)c([N+](=O)[O-])c6)c(Oc6cnc7[nH]cc(F)c7c6)c5)CC4)C3)[C@H](c3ccccc3C(C)C)C2)ccc1C(C)C
0.86

// next record CC(C)c1ccccc1[C@@H]1CN(Cc2ccc(Cl)cc2)CCN1C1CC2(CCN(c3ccc(C(=O)NS(=O)(=O)c4ccc(NC[C@H]5CC[C@](C)(O)CC5)c([N+](=O)[O-])c4)c(Oc4cnc5[nH]ccc5c4)c3)CC2)C1 (single isomer, unassigned) [Example 29a]
-0.14

Cool, now CC(C)c1ccccc1[C@@H]1CN(Cc2ccc(F)c(F)c2)CCN1C1CC2(C1)CN(c1ccc(C(=O)NS(=O)(=O)c3ccc(NC[C@H]4CC[C@](C)(O)CC4)c([N+](=O)[O-])c3)c(Oc3cnc4[nH]ccc4c3)c1)C2
-0.08

Try CC(C)c1ccccc1C1CN(Cc2ccc(OC(F)(F)F)cc2)CCN1C1CC2(CCN(c3ccc(C(=O)NS(=O)(=O)c4ccc(NC[C@H]5CC[C@](C)(O)CC5)c([N+](=O)[O-])c4)c(Oc4cnc5[nH]ccc5c4)c3)CC2)C1 (stereo partly shown) next.
0.83

Note, next up: CC(C)c1ccccc1C1CN(Cc2ccc3c(c2)OC(F)(F)O3)CCN1C1CC2(CCN(c3ccc(C(=O)NS(=O)(=O)c4ccc(NC[C@H]5CC[C@](C)(O)CC5)c([N+](=O)[O-])c4)c(Oc4cnc5[nH]ccc5c4)c3)CC2)C1 (stereo partly shown)
0.66

Okay, and COc1cc(CN2CCN(C3CC4(C3)CN(c3ccc(C(=O)NS(=O)(=O)c5ccc(NC[C@H]6CC[C@](C)(O)CC6)c([N+](=O)[O-])c5)c(Oc5cnc6[nH]cc(F)c6c5)c3)C4)[C@H](c3ccccc3C(C)C)C2)ccc1C(F)(F)F ?
0.60

Query CC#CC(c1ccccc1)N1CCN(C2CC3(CCN(c4ccc(C(=O)NS(=O)(=O)c5ccc(NC[C@H]6CC[C@](C)(O)CC6)c([N+](=O)[O-])c5)c(Oc5cnc6[nH]ccc6c5)c4)CC3)C2)C(c2ccccc2C(C)C)C1 (stereo partly shown) next
1.30

Param item: COc1ccccc1CN1CCN(C2CC3(CCN(c4ccc(C(=O)NS(=O)(=O)c5ccc(NC[C@H]6CC[C@](C)(O)CC6)c([N+](=O)[O-])c5)c(Oc5cnc6[nH]ccc6c5)c4)CC3)C2)C(c2ccccc2C(C)C)C1 (stereo partly shown)
-0.28

Data provenance: patent US20240376097A1
